Source of measurements: patent US12643875B2

- System: HUVEC (Human Umbilical Vein Endothelial Cells)
- experimentNotes: Cytotoxicity, propidium iodide fluorescence, HuVEC cells
- Type: cell-based
- Design: key: % cytotoxicity relative to positive control (100% cell lysis)
- conditionContext: 10× MIC, 24 h, relative to positive control (100% cell lysis)
readout: Cytotoxicity at 10× MIC HuVEC
Field format: numeric only.

Task: Entry Cc1cc(F)ccc1-c1cccc(Nc2ccccc2)n1 [Compound 39704] : reported Cytotoxicity at 10× MIC HuVEC = ?
Output: 15

Task: c1ccc(-c2cccc(-c3cn(-c4ccncc4)nn3)c2)cc1 [Compound 39748] , same question.
Output: 15

Task: Queued: Cc1cc(F)ccc1-c1cccc(NC(=O)c2ccccc2)c1 [Compound 39731]
Output: 14

Task: O=C(Nc1cccc(-c2ccccc2)c1)c1cccc(C(F)(F)F)c1 [Compound 39751] ?
Output: 17

Task: Follow-up entry: Cc1cc(F)ccc1-c1cccc(NC(=O)c2cccc(Cl)c2)n1 [Compound 39720]
Output: 10

Task: Thanks! And Cc1cc(F)ccc1-c1cccc(-c2cn(-c3ccncc3)nn2)c1 [Compound 39724] ?
Output: 16
